target: KRAS G12D (Homo sapiens, UniProt P01116, G12D); construct: AsPc-1-KRAS (G12D)-HiBit-KI cell (Pharmaron); host or cells: AsPc-1-KRAS (G12D)-HiBit-KI cells (HiBiT knock-in at the endogenous KRAS locus); assay: KRAS G12D HiBit assay; assay type: cell-based; conditions: AsPc-1-KRAS (G12D)-HiBit-KI cell, compound treatment for 24 hours, absolute DC50; class symbols
Sequence (P01116 1-188 isoform P01116-2 G12D): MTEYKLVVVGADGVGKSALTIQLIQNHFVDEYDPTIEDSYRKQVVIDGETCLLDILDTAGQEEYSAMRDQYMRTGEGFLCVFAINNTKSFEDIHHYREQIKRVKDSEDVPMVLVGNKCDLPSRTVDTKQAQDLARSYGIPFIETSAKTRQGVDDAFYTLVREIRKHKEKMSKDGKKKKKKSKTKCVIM
Examples of compounds with documented DC50 follow.

- Compound: "CCc1c(F)ccc2cc(O)cc(-c3ncc4c(N5CCC[C@@](C)(O)C5)nc(OC[C@]56CCCN5[C@H](CCCN5CCC(c7ccc8c(c7)n(C)c(=O)n8C7CCC(=O)NC7=O)CC5)CC6)nc4c3F)c12 (stereo partly drawn)"
  DC50: "< 100 nM"
- Compound: "C#Cc1c(F)ccc2cc(O)cc(-c3ncc4c(N5CCC[C@@](C)(O)C5)nc(OC[C@@]56CCCN5[C@H](COC(=O)N5CCC7(CC5)CC(N5CCC(c8ccc9c(c8)n(C)c(=O)n9C8CCC(=O)NC8=O)CC5)C7)CC6)nc4c3F)c12 (stereo partly drawn)"
  DC50: "< 100 nM"
- Compound: "CCc1c(F)ccc2cc(O)cc(-c3ncc4c(N5CCC[C@@](C)(O)C5)nc(OC[C@@]56CCCN5[C@H](COC(=O)N5CCC(N7CCC(Cc8ccc9c(c8)n(C)c(=O)n9C8CCC(=O)NC8=O)CC7)CC5)CC6)nc4c3F)c12 (stereo partly drawn)"
  DC50: "< 100 nM"
- Compound: "CCc1c(F)ccc2cc(O)cc(-c3ncc4c(N5CCC[C@@](C)(O)C5)nc(OC[C@@]56CCCN5[C@H](COC(=O)N5CCN(CC7CCN(c8ccc9c(c8)n(C)c(=O)n9C8CCC(=O)NC8=O)CC7)CC5)CC6)nc4c3F)c12 (stereo partly drawn)"
  DC50: "< 100 nM"
- Compound: "CCc1c(F)ccc2cc(O)cc(-c3ncc4c(N5CCC[C@@](C)(O)C5)nc(OC[C@@]56CCCN5[C@H](COC(=O)N5CCCC5CN5CCC(c7ccc8c(c7)n(C)c(=O)n8C7CCC(=O)NC7=O)CC5)CC6)nc4c3F)c12 (stereo partly drawn)"
  DC50: "< 100 nM"

// C#Cc1c(F)ccc2cc(O)cc(-c3ccc4c(N5CCC[C@@](C)(O)C5)nc(OCC5(CN6CCC(CN7CCC(c8ccc9c(c8)n(C)c(=O)n9C8CCC(=O)NC8=O)CC7)CC6)CC5)nc4c3F)c12 (stereo partly drawn) : DC50 value = < 100 nM

// CCc1c(F)ccc2cc(O)cc(-c3ncc4c(N5CCC[C@@](C)(O)C5)nc(OC[C@]56CCCN5[C@H](COC(=O)N5CCC(CCCCOc7ccc8c(c7)n(C)c(=O)n8C7CCC(=O)NC7=O)CC5)CC6)nc4c3F)c12 (stereo partly drawn) : DC50 value = < 100 nM

// CCc1c(F)ccc2cc(O)cc(-c3ncc4c(N5CCC[C@@](C)(O)C5)nc(OC[C@@]56CCCN5[C@H](COC(=O)N5C7CCC5CC(CN5CCC(c8ccc9c(c8)n(C)c(=O)n9C8CCC(=O)NC8=O)CC5)C7)CC6)nc4c3F)c12 (stereo partly drawn) : DC50 value = < 100 nM

// CCc1c(F)ccc2cc(O)cc(-c3ncc4c(N5CCC[C@@](C)(O)C5)nc(OCC56CCCN5[C@@H](COC(=O)N5CCC(CN7CCC(c8ccc9c(c8)n(C)c(=O)n9C8CCC(=O)NC8=O)CC7)CC5)CC6)nc4c3F)c12 (stereo partly drawn) : DC50 value = < 100 nM

----------
target: KRAS G12V (Homo sapiens, UniProt P01116, G12V); construct: SW620-KRAS (G12V)-HiBit-KI cell (Pharmaron); host or cells: SW620-KRAS (G12V)-HiBit-KI cells (HiBiT knock-in at the endogenous KRAS locus); assay: KRAS G12V HiBit assay; format: cell-based; conditions: SW620-KRAS (G12V)-HiBit-KI cells, compound treatment for 24 hours, class symbols
Sequence (P01116 1-188 isoform P01116-2 G12V): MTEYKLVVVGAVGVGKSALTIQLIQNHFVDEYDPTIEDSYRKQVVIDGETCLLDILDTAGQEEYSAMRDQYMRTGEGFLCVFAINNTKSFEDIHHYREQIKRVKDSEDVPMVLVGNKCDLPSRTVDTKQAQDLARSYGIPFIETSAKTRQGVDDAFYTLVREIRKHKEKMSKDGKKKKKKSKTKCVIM
Examples of compounds with documented DC50 follow.

Measured on KRAS G12V (Homo sapiens, UniProt P01116, G12V), CCc1c(F)ccc2cc(O)cc(-c3ncc4c(N5CCCC(F)(F)C5)nc(OC[C@@]56CCCN5[C@H](COC(=O)N5CCC7(CC5)CC(N5CCC(c8ccc9c(c8)n(C)c(=O)n9C8CCC(=O)NC8=O)CC5)C7)CC6)nc4c3F)c12 (stereo partly drawn) has a documented DC50 of < 10 nM

Measured on KRAS G12V (Homo sapiens, UniProt P01116, G12V), CCc1c(F)ccc2cc(O)cc(-c3ncc4c(N5CCCC5)nc(OC[C@@]56CCCN5[C@H](COC(=O)N5CCC7(CC5)CC(N5CCC(c8ccc9c(c8)n(C)c(=O)n9C8CCC(=O)NC8=O)CC5)C7)CC6)nc4c3F)c12 (stereo partly drawn) has a documented DC50 of > 100 nM

Measured on KRAS G12V (Homo sapiens, UniProt P01116, G12V), CCc1c(F)ccc2cc(O)cc(-c3ncc4c(N5CCC[C@](C)(O)C5)nc(OC[C@]56CCCN5[C@@H](COC(=O)N5CC7CCC(C5)C7CN5CCC(c7ccc8c(c7)n(C)c(=O)n8C7CCC(=O)NC7=O)CC5)CC6)nc4c3F)c12 (stereo partly drawn) has a documented DC50 of < 10 nM

Measured on KRAS G12V (Homo sapiens, UniProt P01116, G12V), C#Cc1c(F)ccc2cccc(-c3ncc4c(N5CCC[C@@](C)(O)C5)nc(OCC5(CN6CCC(N7CCC(c8ccc9c(C%10CCC(=O)NC%10=O)nn(C)c9c8)CC7)CC6)CC5)nc4c3F)c12 (stereo partly drawn) has a documented DC50 of > 100 nM

Measured on KRAS G12V (Homo sapiens, UniProt P01116, G12V), CCc1c(F)ccc2cc(O)cc(-c3ncc4c(N5CCC[C@@](C)(O)C5)nc(OC[C@@]56CCCN5[C@H](COC(=O)N5CC7(CC(N8CCC(c9ccc%10c(c9)n(C)c(=O)n%10C9CCC(=O)NC9=O)CC8)C7)C5)CC6)nc4c3F)c12 (stereo partly drawn) has a documented DC50 of < 10 nM

Measured on KRAS G12V (Homo sapiens, UniProt P01116, G12V), CCc1c(F)ccc2cc(O)cc(-c3ncc4c(N5CCC[C@@H]5CO)nc(OC[C@@]56CCCN5[C@H](COC(=O)N5CCC7(CC5)CC(N5CCC(c8ccc9c(c8)n(C)c(=O)n9C8CCC(=O)NC8=O)CC5)C7)CC6)nc4c3F)c12 (stereo partly drawn) has a documented DC50 of < 10 nM

Measured on KRAS G12V (Homo sapiens, UniProt P01116, G12V), CCc1c(F)ccc2cc(O)cc(-c3ncc4c(N5CCC[C@@](C)(O)C5)nc(OC[C@@]56CCCN5[C@H](COC(=O)N5CCC(N7CCC(Cc8ccc9c(c8)n(C)c(=O)n9C8CCC(=O)NC8=O)CC7)CC5)CC6)nc4c3F)c12 (stereo partly drawn) has a documented DC50 of 10 to 100 nM

Measured on KRAS G12V (Homo sapiens, UniProt P01116, G12V), CCc1c(F)ccc2cc(O)cc(-c3ncc4c(N5CCC[C@@](C)(O)C5)nc(OC[C@]56CCCN5[C@H](COC(=O)N5CCC(CCCCOc7ccc8c(c7)n(C)c(=O)n8C7CCC(=O)NC7=O)CC5)CC6)nc4c3F)c12 (stereo partly drawn) has a documented DC50 of < 10 nM

Measured on KRAS G12V (Homo sapiens, UniProt P01116, G12V), CCc1c(F)ccc2cc(O)cc(-c3ncc4c(N5CCC[C@@](C)(O)C5)nc(OC[C@@]56CCCN5[C@H](COC(=O)c5ccc(CN7CCC(c8ccc9c(c8)n(C)c(=O)n9C8CCC(=O)NC8=O)CC7)cc5)CC6)nc4c3F)c12 (stereo partly drawn) has a documented DC50 of < 10 nM

----------
Target: KRAS G12V (Homo sapiens, UniProt P01116, G12V)
Construct: SW620-KRAS (G12V)-HiBit-KI cell (Pharmaron); host or cells: SW620-KRAS (G12V)-HiBit-KI cells (HiBiT knock-in at the endogenous KRAS locus)
Experiment: KRAS G12V HiBit assay
Assay type: cell-based
Conditions: SW620-KRAS (G12V)-HiBit-KI cells, compound treatment for 24 hours, class symbols
Protocol: Day 1. […] Rinsed cultivated cells in T-75 flasks with 5 mL PBS (Solarbio, P1020-500). […] Inactivated trypsin by adding excessive serum containing medium. Harvested the cells from flask into cell culture medium and counted the cell number. Day 2. Test compounds were dissolved at 0.3 mM in DMSO (Solarbio, D8371) as stock solution. […] The degradation activity was calculated using the following formula: […]
Examples of molecules with documented DC50 follow.

Example results:
- Molecule: "C#Cc1c(F)ccc2cc(O)cc(-c3ncc4c(N5CCC[C@@](C)(O)C5)nc(OC[C@@]56CCCN5[C@H](COC(=O)N5CCC(OCCC#Cc7cccc8c7n(C)c(=O)n8C7CCC(=O)NC7=O)CC5)CC6)nc4c3F)c12 (stereo partly shown)"
  Measured property: "DC50"
  Assay result: "10 to 100 nM"
- Molecule: "Cn1c(=O)n(C2CCC(=O)NC2=O)c2ccc(C3CCN(C4CC5(CCN(C(=O)OC[C@@H]6CC[C@]7(COc8nc(N9CCC[C@@](C)(O)C9)c9cnc(-c%10cc(O)cc%11ccc(F)cc%10%11)cc9n8)CCCN67)CC5)C4)CC3)cc21 (stereo partly shown)"
  Measured property: "DC50"
  Assay result: "< 10 nM"
- Molecule: "C#Cc1c(F)ccc2cc(O)cc(-c3ncc4c(N5CCC[C@@](C)(O)C5)nc(OC[C@@]56CCCN5[C@H](COC(=O)N5CCC(CN7CCC(c8ccc9c(c8)n(C8CCC(=O)NC8=O)c(=O)n9C)CC7)CC5)CC6)nc4c3F)c12 (stereo partly shown)"
  Measured property: "DC50"
  Assay result: "> 100 nM"

Then this molecule:
Measured on KRAS G12V (Homo sapiens, UniProt P01116, G12V), CCc1c(F)ccc2cc(O)cc(-c3cc4nc(OC[C@@]56CCCN5[C@H](COC(=O)N5CCC7(CC5)CC(N5CCC(c8ccc9c(c8)n(C)c(=O)n9C8CCC(=O)NC8=O)CC5)C7)CC6)nc(N5CCC[C@@](C)(O)C5)c4cn3)c12 (stereo partly shown) has a documented DC50 of < 10 nM
